species on record: Rattus norvegicus; assay: Open TG-GATES - Regimen: Daily Repeat; format: toxicity, organism-based, Sprague-Dawley; design: regimen Daily Repeat, gender Male, age 6 weeks; settings: in vivo, po, 0 mg/kg, […], tissue Plasma, route gavage, dose level Control, time 28 day
In this section we review reported AST values for a set of molecules.
Measured endpoint: AST (IU/L)

[
  {
    "Molecule": "NS(=O)(=O)c1cc(C(=O)O)c(NCc2ccco2)cc1Cl [FUROSEMIDE]",
    "Measured endpoint": "AST",
    "Unit abbreviation": "IU/L",
    "Reported value": 64.6
  },
  {
    "Molecule": "COc1ccc([C@@H]2Sc3ccccc3N(CCN(C)C)C(=O)[C@@H]2OC(C)=O)cc1",
    "Measured endpoint": "AST",
    "Unit abbreviation": "IU/L",
    "Reported value": 66
  },
  {
    "Molecule": "CC(=O)[C@@]1(O)CC[C@H]2[C@@H]3C=C(Cl)C4=CC(=O)CC[C@]4(C)[C@H]3CC[C@@]21C",
    "Measured endpoint": "AST",
    "Unit abbreviation": "IU/L",
    "Reported value": 73.4
  },
  {
    "Molecule": "CCO",
    "Measured endpoint": "AST",
    "Unit abbreviation": "IU/L",
    "Reported value": 61.2
  },
  {
    "Molecule": "Nc1ccc(Cc2ccc(N)cc2)cc1",
    "Measured endpoint": "AST",
    "Unit abbreviation": "IU/L",
    "Reported value": 56.6
  },
  {
    "Molecule": "O=C(O)c1ccccc1Nc1ccccc1",
    "Measured endpoint": "AST",
    "Unit abbreviation": "IU/L",
    "Reported value": 58.2
  },
  {
    "Molecule": "O=c1ccc2ccccc2o1",
    "Measured endpoint": "AST",
    "Unit abbreviation": "IU/L",
    "Reported value": 54.2
  },
  {
    "Molecule": "CN(CCOc1ccc(CC2SC(=O)NC2=O)cc1)c1ccccn1.O=C(O)/C=C\\C(=O)O (configuration not stated) [ROSIGLITAZONE MALEATE]",
    "Measured endpoint": "AST",
    "Unit abbreviation": "IU/L",
    "Reported value": 55
  },
  {
    "Molecule": "CCCCC1C(=O)N(c2ccccc2)N(c2ccccc2)C1=O",
    "Measured endpoint": "AST",
    "Unit abbreviation": "IU/L",
    "Reported value": 62
  },
  {
    "Molecule": "CN(C/C=C/C#CC(C)(C)C)Cc1cccc2ccccc12",
    "Measured endpoint": "AST",
    "Unit abbreviation": "IU/L",
    "Reported value": 65.8
  },
  {
    "Molecule": "CCCCNC(=O)NS(=O)(=O)c1ccc(C)cc1 [TOLBUTAMIDE]",
    "Measured endpoint": "AST",
    "Unit abbreviation": "IU/L",
    "Reported value": 62
  },
  {
    "Molecule": "CC(S)C(=O)NCC(=O)O (configuration not stated)",
    "Measured endpoint": "AST",
    "Unit abbreviation": "IU/L",
    "Reported value": 61.4
  }
]
